assay: Critical micelle concentration (CMC) by DPH fluorescence; type: physicochemical; conditions: 50 mM tris-HCl, pH 8.0
Residues, ends and D or L forms follow the SMILES beside them. *: point of attachment. Lauroyl = CCCCCCCCCCCC(=O)*; Decanoyl = CCCCCCCCCC(=O)*

# COMPOUND, CMC
measured = [
    ("CCCCCCCCCCCC(=O)NC(CC(=O)NC(CCC(=O)O)C(=O)O)C(=O)NC(CCC(=O)O)C(=O)O (centres unmarked) [Compound 4.6b] (Lauroyl-Asp(Glu)-Glu-OH; configuration not given here)", "1 mM"),
    ("CCCCCCCCCC(=O)NC(CC(=O)NC(CCC(=O)O)C(=O)O)C(=O)NC(CCC(=O)O)C(=O)O (centres unmarked) [Compound 4.6a] (Decanoyl-Asp(Glu)-Glu-OH; configuration not given here)", "1 mM"),
    ("CCCCCCCCCCCC(=O)NC(CC(=O)O)C(=O)NC(CCC(=O)O)C(=O)O (stereo not drawn) [Compound 4.5b] (Lauroyl-Asp-Glu-OH; configuration not given here)", "2 mM"),
    ("CCCCCCCCCCCCC(CCCCCCCCCCCC)C(=O)N[C@@H](COCc1cn(CCO[C@@H]2OC(CO)[C@@H](O)C(O)C2O)nn1)C(=O)N[C@H](CCC(=O)O)C(=O)O (some centres unmarked)", "0.02 mM"),
    ("CCCCCCCCCC(=O)N[C@@H](COCc1cn(CCO[C@@H]2OC(CO)[C@@H](O)C(O)C2O)nn1)C(=O)N[C@H](CCC(=O)O)C(=O)O (some centres unmarked)", "2 mM"),
]
